Form field: Haemolysis on hRBC, MHC (one value per entry).
- Test system: human red blood cells
- protocol-text: Hemolysis assay, minimum hemolytic concentration
- condition-description: 2.5% human red blood cells (final) in 10 mM phosphate, 150 mM NaCl, pH 7.4, 25 °C, 4 h; visual inspection
No end group written: not given here.

Query block: Which Haemolysis on hRBC, MHC value belongs to VDKPPYLPRPRPPRRIYNR [sr14Nterm-Onc] (VDKPPYLPRPRPPRRIYNR-NH2; also: residues 1-14 stereorandomized (1:1 L/D mixture)) ?
Result block: >1000 µg/mL

Query block: Reported Haemolysis on hRBC, MHC for VDKPPYLPRPRPPRRIYNR [sr8Cterm-Onc] (VDKPPYLPRPRPPRRIYNR-NH2; also: residues 12-19 stereorandomized (1:1 L/D mixture)) : what is it?
Result block: >1000 µg/mL

Query block: Given VDKPPYLPRPRPPRRIYNR [sr3Nterm-Onc] (VDKPPYLPRPRPPRRIYNR-NH2; also: residues 1-3 stereorandomized (1:1 L/D mixture)) , state its recorded Haemolysis on hRBC, MHC.
Result block: >1000 µg/mL

---

- Tested on: E. coli W3110
- protocol-text: microbe, parasite or virus in culture
- condition-description: supplement CSV; 12.5% MH pH 7.4
No end group written: not given here.
experimental-endpoint: MIC E. coli W3110 (µg/mL)
Kindly provide the numeric value in µg/mL only, without the unit symbol.

1. VDKPPYLPRPRPPRRIYNR [sr5Cterm-Onc] (VDKPPYLPRPRPPRRIYNR-NH2; also: residues 15-19 stereorandomized (1:1 L/D mixture)) :: 2
2. VDKPPYLPRPRPPRRIYNR [srP45-Onc] (VDKPPYLPRPRPPRRIYNR-NH2; also: residues 4-5 (Pro-Pro) stereorandomized (1:1 L/D mixture)) :: 4
3. VDKPPYLPRPRPPRRIYNR [sr9Cterm-Onc] (VDKPPYLPRPRPPRRIYNR-NH2; also: residues 11-19 stereorandomized (1:1 L/D mixture)) :: 4

Query block: Item under review: VDKPPYLPRPRPPRRIYNR [sr3Nterm-Onc] (VDKPPYLPRPRPPRRIYNR-NH2; also: residues 1-3 stereorandomized (1:1 L/D mixture)) . Reported MIC E. coli W3110?
Result block: 2

Query block: Look at this sequence and give its reported MIC E. coli W3110. VDKPPYLPRPRPPRRIYNR [sr12Cterm-Onc] (VDKPPYLPRPRPPRRIYNR-NH2; also: residues 8-19 stereorandomized (1:1 L/D mixture))
Result block: 8

---

Entries and their measured MIC P. aeruginosa, Full MHB follow.
- Test system: P. aeruginosa PAO1
- protocol-text: microbe, parasite or virus in culture
- condition-description: P. aeruginosa PAO1; full Müller–Hinton medium; 16–20 h at 37 °C
No end group written: not given here.

Answered examples (2):
1) VDKPPYLPRPRPPRRIYNR-NH2 [L-Onc, reference compound] :: > 64 µg/mL
2) VDKPPYLPRPRPPRRIYNR [srP45-Onc] (VDKPPYLPRPRPPRRIYNR-NH2; also: residues 4-5 (Pro-Pro) stereorandomized (1:1 L/D mixture)) :: > 64 µg/mL

From here, focus on the item given below.
Query block: GET /values?readout=MIC P. aeruginosa, Full MHB&item= VDKPPYLPRPRPPRRIYNR [sr10Cterm-Onc] (VDKPPYLPRPRPPRRIYNR-NH2; also: residues 10-19 stereorandomized (1:1 L/D mixture))
Result block: 64 µg/mL

---

The entries below are paired with their reported MIC P. aeruginosa ZEM9A, 12.5% MHB.
- Test system: P. aeruginosa ZEM9A
- protocol-text: microbe, parasite or virus in culture
- condition-description: clinical isolate; 12.5% MHB pH 7.4; 16–20 h at 37 °C
No end group written: not given here.
// units = µg/mL; emit number, no label

1. VDKPPYLPRPRPPRRIYNR [sr8Cterm-Onc] (VDKPPYLPRPRPPRRIYNR-NH2; also: residues 12-19 stereorandomized (1:1 L/D mixture)) :: 8
2. VDKPPYLPRPRPPRRIYNR [sr5Cterm-Onc] (VDKPPYLPRPRPPRRIYNR-NH2; also: residues 15-19 stereorandomized (1:1 L/D mixture)) :: 8
3. VDKPPYLPRPRPPRRIYNR-NH2 [L-Onc, reference compound] :: 32
4. VDKPPYLPRPRPPRRIYNR [sr9Cterm-Onc] (VDKPPYLPRPRPPRRIYNR-NH2; also: residues 11-19 stereorandomized (1:1 L/D mixture)) :: 8

Query block: If you can, please state the reported MIC P. aeruginosa ZEM9A, 12.5% MHB value of VDKPPYLPRPRPPRRIYNR [sr-Onc] (VDKPPYLPRPRPPRRIYNR-NH2; also: all 19 residues stereorandomized (1:1 L/D mixture)) .
Result block: 32

---

In this section we review reported MIC P. aeruginosa PAO1 values for a set of sequences.
- Tested on: P. aeruginosa PAO1
- protocol-text: microbe, parasite or virus in culture
- condition-description: supplement CSV; full MH pH 7.4
No end group written: not given here.

Recorded results for 2 sequences are shown here.
1) VDKPPYLPRPRPPRRIYNR [sr-Onc] (VDKPPYLPRPRPPRRIYNR-NH2; also: all 19 residues stereorandomized (1:1 L/D mixture)) :: >64 µg/mL
2) VDKPPYLPRPRPPRRIYNR [sr3N5Cterm-Onc] (VDKPPYLPRPRPPRRIYNR-NH2; also: residues 1-3 and 15-19 stereorandomized (1:1 L/D mixture)) :: >64 µg/mL

Query block: Please give the measured MIC P. aeruginosa PAO1 for this sequence: VDKPPYLPRPRPPRRIYNR [sr8Cterm-Onc] (VDKPPYLPRPRPPRRIYNR-NH2; also: residues 12-19 stereorandomized (1:1 L/D mixture))
Result block: 64 µg/mL

Query block: Looking for the measured MIC P. aeruginosa PAO1 of VDKPPYLPRPRPPRRIYNR [srP45-Onc] (VDKPPYLPRPRPPRRIYNR-NH2; also: residues 4-5 (Pro-Pro) stereorandomized (1:1 L/D mixture)) , can you help?
Result block: >64 µg/mL

Query block: Given the entry VDKPPYLPRPRPPRRIYNR [sr12Cterm-Onc] (VDKPPYLPRPRPPRRIYNR-NH2; also: residues 8-19 stereorandomized (1:1 L/D mixture)) , report its measured MIC P. aeruginosa PAO1.
Result block: >64 µg/mL

---

Overview of recorded MIC E. cloacae, 12.5% MHB for various substances
- System: E. cloacae
- protocol-text: microbe, parasite or virus in culture
- condition-description: 12.5% MHB pH 7.4; 16–20 h at 37 °C
No end group written: not given here.
Express it in µg/mL; write the number only.

Example entries and their recorded answers appear below.
1) VDKPPYLPRPRPPRRIYNR [sr14Nterm-Onc] (VDKPPYLPRPRPPRRIYNR-NH2; also: residues 1-14 stereorandomized (1:1 L/D mixture)) :: 8
2) VDKPPYLPRPRPPRRIYNR-NH2 [L-Onc, reference compound] :: 1
3) VDKPPYLPRPRPPRRIYNR [sr9Cterm-Onc] (VDKPPYLPRPRPPRRIYNR-NH2; also: residues 11-19 stereorandomized (1:1 L/D mixture)) :: 1
4) VDKPPYLPRPRPPRRIYNR [sr5Cterm-Onc] (VDKPPYLPRPRPPRRIYNR-NH2; also: residues 15-19 stereorandomized (1:1 L/D mixture)) :: 1
5) VDKPPYLPRPRPPRRIYNR [sr-Onc] (VDKPPYLPRPRPPRRIYNR-NH2; also: all 19 residues stereorandomized (1:1 L/D mixture)) :: 8

Query block: What MIC E. cloacae, 12.5% MHB value was documented for this substance, VDKPPYLPRPRPPRRIYNR [sr8Cterm-Onc] (VDKPPYLPRPRPPRRIYNR-NH2; also: residues 12-19 stereorandomized (1:1 L/D mixture)) ?
Result block: 0.5

---

- System: P. aeruginosa ZEM-1A
- protocol-text: microbe, parasite or virus in culture
- condition-description: supplement CSV; 12.5% MH pH 7.4
No end group written: not given here.
experimental-endpoint: MIC P. aeruginosa ZEM-1A

// known answers, use as guide
1) VDKPPYLPRPRPPRRIYNR [sr14Nterm-Onc] (VDKPPYLPRPRPPRRIYNR-NH2; also: residues 1-14 stereorandomized (1:1 L/D mixture)) :: >64 µg/mL
2) VDKPPYLPRPRPPRRIYNR-NH2 [L-Onc, reference compound] :: 8 to 16 µg/mL
3) VDKPPYLPRPRPPRRIYNR [sr8Cterm-Onc] (VDKPPYLPRPRPPRRIYNR-NH2; also: residues 12-19 stereorandomized (1:1 L/D mixture)) :: 4 to 8 µg/mL
4) VDKPPYLPRPRPPRRIYNR [sr5Cterm-Onc] (VDKPPYLPRPRPPRRIYNR-NH2; also: residues 15-19 stereorandomized (1:1 L/D mixture)) :: 4 to 8 µg/mL

Query block: Give the measured MIC P. aeruginosa ZEM-1A of VDKPPYLPRPRPPRRIYNR [sr9Cterm-Onc] (VDKPPYLPRPRPPRRIYNR-NH2; also: residues 11-19 stereorandomized (1:1 L/D mixture)) .
Result block: 4 to 8 µg/mL

Query block: Entry under review: VDKPPYLPRPRPPRRIYNR [sr-Onc] (VDKPPYLPRPRPPRRIYNR-NH2; also: all 19 residues stereorandomized (1:1 L/D mixture)) . Reported MIC P. aeruginosa ZEM-1A?
Result block: 64 µg/mL
